# measured on: HLA-B*51:01
# experiment notes: IEDB peptide-MHC binding, purified MHC/competitive/fluorescence; filed as Kd, often an IC50 or EC50 that approximates it; bounds were set here for any values at or beyond the usual limits of such assays
# conditions: source organism: Listeria monocytogenes serotype 4b str. H7858
pKd: −log10 of the molar value.
metric: pKd

Input: Look at this sequence and give its reported pKd. ITWPRTRHW
Output: ≤ 4.70

====

# measured on: HLA-A*24:03
# experiment notes: IEDB peptide-MHC binding, purified MHC/direct/fluorescence; filed as Kd, often an IC50 or EC50 that approximates it; bounds were set here for any values at or beyond the usual limits of such assays
# conditions: source organism: Zaire ebolavirus
pKd: −log10 of the molar value.
metric: pKd

Input: Look at this sequence and give its reported pKd. TPSHYSGNI
Output: ≤ 4.70

Input: Look at this sequence and give its reported pKd. TVAPPAPVY
Output: ≤ 4.70

====

# measured on: HLA-B*57:01
# experiment notes: IEDB peptide-MHC binding, purified MHC/direct/fluorescence; filed as Kd, often an IC50 or EC50 that approximates it; bounds were set here for any values at or beyond the usual limits of such assays
# conditions: source organism: Influenza A virus (A/quail/Hong Kong/FY298/00(H9N2))
pKd: −log10 of the molar value.
metric: pKd

Input: Look at this sequence and give its reported pKd. SYLIRALTL
Output: ≤ 4.70

====

Task for the reader: assign each of the following sequences its reported pKd.
# measured on: HLA-B*57:01
# experiment notes: IEDB peptide-MHC binding, purified MHC/direct/fluorescence; filed as Kd, often an IC50 or EC50 that approximates it; bounds were set here for any values at or beyond the usual limits of such assays
# conditions: source organism: Mycobacterium tuberculosis
pKd: −log10 of the molar value.

Input: Notebook entry, HLA-B*57:01 assay: pKd of RPAGARAAF = ?
Output: ≤ 4.70

Input: Notebook entry, HLA-B*57:01 assay: pKd of RPRLHSISF = ?
Output: ≤ 4.70

====

# measured on: HLA-B*15:01
# experiment notes: IEDB peptide-MHC binding, purified MHC/competitive/fluorescence; filed as Kd, often an IC50 or EC50 that approximates it; bounds were set here for any values at or beyond the usual limits of such assays
# conditions: source organism: Vibrio vulnificus CMCP6
pKd: −log10 of the molar value.
metric: pKd

Input: Look at this sequence and give its reported pKd. WLAGFEPSE
Output: ≤ 4.70

====

# measured on: HLA-B*46:01
# experiment notes: IEDB peptide-MHC binding, purified MHC/direct/fluorescence; filed as Kd, often an IC50 or EC50 that approximates it; bounds were set here for any values at or beyond the usual limits of such assays
# conditions: source organism: Yellow fever virus 1899/81
metric: Kd

Input: Look at this sequence and give its reported Kd. RADEINAIL
Output: ≥ 20 µM

====

# measured on: HLA-A*02:06
# experiment notes: IEDB peptide-MHC binding, purified MHC/competitive/radioactivity; filed as Kd, often an IC50 or EC50 that approximates it; bounds were set here for any values at or beyond the usual limits of such assays
# conditions: source organism: Homo sapiens
pKd: −log10 of the molar value.
metric: pKd

Input: Notebook entry, HLA-A*02:06 assay: pKd of RLKQLKRQL = ?
Output: ≤ 4.21
